Data provenance is paper PMC12586182.

test system: BT-474; test: Cell viability assay (ATPlite); format: cell-based; settings: Homo sapiens; BT-474 cell line, 72 hours incubation
Endpoint Name: IC50

O=C(c1ccc(Oc2ccccc2)cc1Cl)c1c[nH]c2ncnc(N[C@@H]3CC[C@@H](CO)OC3)c12    3.11 µM

###

target: DDR2 (Homo sapiens); construct: purchased Carna Biosciences; test: Kinase panel profiling at 1 µmol/L (mobility shift assay, Carna); assay type: biochemical; details: 1 µmol/L of BTK inhibitor
Sequence (Q16832 22-855): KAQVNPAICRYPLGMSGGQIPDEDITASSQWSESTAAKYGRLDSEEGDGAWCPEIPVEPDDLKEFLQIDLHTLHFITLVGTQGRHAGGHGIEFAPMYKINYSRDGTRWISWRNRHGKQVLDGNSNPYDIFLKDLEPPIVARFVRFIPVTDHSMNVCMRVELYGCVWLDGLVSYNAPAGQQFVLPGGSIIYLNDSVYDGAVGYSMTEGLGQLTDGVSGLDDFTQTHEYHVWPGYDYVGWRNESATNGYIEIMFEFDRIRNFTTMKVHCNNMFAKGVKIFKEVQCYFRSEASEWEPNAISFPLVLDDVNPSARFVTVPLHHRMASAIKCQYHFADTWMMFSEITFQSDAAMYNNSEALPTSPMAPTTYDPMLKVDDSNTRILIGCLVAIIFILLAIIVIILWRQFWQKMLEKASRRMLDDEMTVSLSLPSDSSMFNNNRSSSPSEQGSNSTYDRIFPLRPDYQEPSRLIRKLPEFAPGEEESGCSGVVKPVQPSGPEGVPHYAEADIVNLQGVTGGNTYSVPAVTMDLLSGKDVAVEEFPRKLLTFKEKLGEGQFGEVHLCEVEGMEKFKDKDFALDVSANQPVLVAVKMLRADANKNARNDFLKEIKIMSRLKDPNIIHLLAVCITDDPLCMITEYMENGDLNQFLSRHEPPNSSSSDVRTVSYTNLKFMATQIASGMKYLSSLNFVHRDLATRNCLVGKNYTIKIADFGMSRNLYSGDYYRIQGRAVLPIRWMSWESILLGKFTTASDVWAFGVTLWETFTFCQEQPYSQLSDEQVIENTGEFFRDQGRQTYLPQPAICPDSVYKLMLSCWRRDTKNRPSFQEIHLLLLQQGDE
Endpoint Name: Percentage inhibition of kinase enzyme activity (%)

C=CC(=O)N1CCC[C@@H](n2nc(-c3ccc(Oc4ccccc4)cc3)c3c(N)ncnc32)C1 [ibrutinib]    17.34
COc1ccc(F)cc1C(=O)NCc1ccc(-c2nn([C@@H](C)C(F)(F)F)c(N)c2C(N)=O)cc1 [pirtobrutinib]    9.58
O=C(c1ccc(Oc2ccccc2)cc1Cl)c1c[nH]c2ncnc(N[C@@H]3CC[C@@H](CO)OC3)c12 [nemtabrutinib]    93.92
CC#CC(=O)N1CCC[C@H]1c1nc(-c2ccc(C(=O)Nc3ccccn3)cc2)c2c(N)nccn12 [acalabrutinib]    6.23
